Biological target: Cytochrome P450 2C19 (Homo sapiens) (UniProt P33261)
Sequence (P33261 whole entry, looked up): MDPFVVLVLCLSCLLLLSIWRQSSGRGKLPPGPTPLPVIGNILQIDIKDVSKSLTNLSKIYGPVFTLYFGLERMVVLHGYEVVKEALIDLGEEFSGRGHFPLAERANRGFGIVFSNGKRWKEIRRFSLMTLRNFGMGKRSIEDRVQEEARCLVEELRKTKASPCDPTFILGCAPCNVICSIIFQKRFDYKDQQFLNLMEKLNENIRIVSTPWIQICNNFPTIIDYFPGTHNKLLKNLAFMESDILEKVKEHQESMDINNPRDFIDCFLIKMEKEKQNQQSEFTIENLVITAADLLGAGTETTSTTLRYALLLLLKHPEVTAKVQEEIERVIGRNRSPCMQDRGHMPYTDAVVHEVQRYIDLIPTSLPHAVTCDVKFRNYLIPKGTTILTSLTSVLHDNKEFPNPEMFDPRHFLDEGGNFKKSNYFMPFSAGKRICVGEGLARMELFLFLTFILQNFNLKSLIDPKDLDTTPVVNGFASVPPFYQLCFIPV
Assay: Cytochrome panel assay with activity outcomes
Conditions: recombinant CYP, pro-luciferin dealkylation, luminescence, p450-cyp2c19; series mostly up to 57.1 µM
Protocol: The P450 gene superfamily is involved in the metabolism and clearance of xenobiotics. This assay used various human CYP P450 isozymes to measure the dealkylation of various pro-luciferin substrates to luciferin. The luciferin is then measured by luminescence after the addition of a luciferase detection reagent. […] Inhibitors and some substrates limit the production of luciferin, and decrease measured luminescence. […] 8, Detection, 1 sec, ViewLux luminescent read […]
Screen size: about 16,000 compounds; about 5,800 (36%) were called active. Another 23% or so got no clear call; they are omitted. Calls follow the shape of the dose curve; as a rule, active = well fitted curve in the direction sought with a large enough effect; inconclusive = small, poorly fitted or top-dose-only effect, or effect the other way; inactive = no such curve, though single readings can be large or run the other way. The list shows a part of the results.
In this exercise, the only acceptable responses are true for active, false for inactive

CN(CCCNC(=O)C1CCC(=O)N1Cc1ccccc1Cl)c1ccccc1 (centres undefined)	true
COC(=O)C1=C(C)C(c2ccc(OC)cc2)NC(=S)N1 (centres undefined)	true
Cc1ccccc1C(=O)c1cccn1CC(=O)NCc1ccco1	true

Could you kindly confirm the outcome this assay logged for O=C(Cn1cccc1C(=O)c1ccccc1)NCc1cccs1 ?
true

Could you kindly confirm the outcome this assay logged for CN(Cc1ccco1)C(=O)C1CCC(=O)N1Cc1ccc(F)cc1 (centres undefined) ?
true

Could you kindly confirm the outcome this assay logged for COc1ccc(C2C(C(=O)N3CCOCC3)CCC(=O)N2c2ccc(OC)cc2)cc1 (centres undefined) ?
false

Could you kindly confirm the outcome this assay logged for COc1ccc(Oc2ncc3ncc(=O)n(C[C@H]4CCCO4)c3n2)cc1 ?
false

Could you kindly confirm the outcome this assay logged for O=C(NCCN1CCN(Cc2ccccc2)CC1)C1CC(=O)N(C2CCCC2)C1 (centres undefined) ?
false

Could you kindly confirm the outcome this assay logged for O=C(Cn1cc(C(=O)c2ccco2)c2ccccc21)NCc1ccco1 ?
true

====

biological target: Cytochrome P450 2C19 (Homo sapiens) (UniProt P33261); test: Cytochrome panel assay with activity outcomes; details: recombinant CYP, pro-luciferin dealkylation, luminescence, p450-cyp2c19; series mostly up to 57.1 µM
Among all 16,000 compounds or so, about 5,800 (36%) were called active. Roughly 23% stayed inconclusive and do not appear here. Calls follow the shape of the dose curve; as a rule, active = well fitted curve in the direction sought with a large enough effect; inconclusive = small, poorly fitted or top-dose-only effect, or effect the other way; inactive = no such curve, though single readings can be large or run the other way. The list shows a part of the results.
In this exercise, the only acceptable responses are TRUE (active), FALSE (inactive)

COc1ccc(-n2c(=O)c(-c3ccc(Cl)cc3)nc3cnc(N4CCNCC4)nc32)cc1	FALSE
COC(=O)[C@@]1(Cc2ccc(OC)cc2)[C@H]2c3cc(C(=O)N4CCCC4)n(CCn4cc([N+](=O)[O-])nc4C)c3C[C@H]2CN1C(=O)c1ccccc1	FALSE
N[C@H](C(=O)O)[C@@H]1C[C@@H]1C(=O)O	FALSE

Now for another entry.
Could you kindly confirm the outcome this assay logged for COC(=O)[C@@]1(Cc2ccccc2)[C@H]2c3cc(C(=O)N4CCCC4)n(CCc4ccccn4)c3C[C@H]2CN1C(=O)c1ccccc1 ?
TRUE

====

target: Cytochrome P450 2C19 (Homo sapiens); experiment: Cytochrome panel assay with activity outcomes; conditions: recombinant CYP, pro-luciferin dealkylation, luminescence, p450-cyp2c19; series mostly up to 57.1 µM
Among all 16,000 compounds or so, about 5,800 (36%) were called active. Roughly 23% stayed inconclusive and do not appear here. Calls come from the whole dose curve; as a rule, active = well fitted curve in the direction sought with a large enough effect; inconclusive = small, poorly fitted or top-dose-only effect, or effect the other way; inactive = no such curve, though single readings can be large or run the other way. The list shows a part of the results.
In this exercise, the only acceptable responses are active, inactive

These solved cases illustrate the format of a correct answer.
O=C(O)C[C@@H]1CCCc2ccccc2[C@H]1O	inactive
CS(=O)(=O)Nc1cccc(-c2nc(Nc3ccccc3)c3ccccc3n2)c1	active
COc1cccc(-c2cncnc2-n2ccnc2)c1	active

Could you kindly confirm the outcome this assay logged for O=C1CC[C@H](N2C(=O)c3ccccc3C2=O)C(=O)N1 ?
inactive

Could you kindly confirm the outcome this assay logged for Cc1ccc(S(=O)(=O)N[C@H](C(=O)Oc2ccc3c(C(F)(F)F)cc(=O)oc3c2)c2ccccc2)cc1 ?
active

Could you kindly confirm the outcome this assay logged for NC(=O)c1ccc[n+](CC(=O)OCCC23CC4CC(CC(C4)C2)C3)c1 ?
inactive

Could you kindly confirm the outcome this assay logged for N/C(=N\OC(=O)Cc1ccc(Cl)cc1)c1cccnc1 ?
active

Could you kindly confirm the outcome this assay logged for COc1ccc(C(=O)OC(C)CN2CCN(C)CC2)cc1OC (configuration not stated) ?
inactive

Could you kindly confirm the outcome this assay logged for Cc1nc2c(C#N)c(C)[nH]n2c(=O)c1Cc1ccccc1 ?
inactive

Could you kindly confirm the outcome this assay logged for COc1ccc(OC)c(C2C3=C(COC3=O)Nc3cc4c(cc32)OCO4)c1 (configuration not stated) ?
active

Could you kindly confirm the outcome this assay logged for CCCC[S@@](=N)(=O)CC[C@@H](N)C(=O)O ?
inactive

Could you kindly confirm the outcome this assay logged for O=C(NCCOC12CC3CC(CC(C3)C1)C2)c1cccc(Br)c1 ?
active

Could you kindly confirm the outcome this assay logged for O=c1cc(-c2ccccc2)oc2cc(O)c(O)c(O)c12 ?
inactive

Could you kindly confirm the outcome this assay logged for O=C1c2ccccc2C(=O)N1CC(=O)N1c2ccccc2CCc2ccccc21 ?
active
